Tested Target: HCV NS5b polymerase (Hepatitis C virus genotype 1b, UniProt P26663)
Sequence (P26663 2420-2955): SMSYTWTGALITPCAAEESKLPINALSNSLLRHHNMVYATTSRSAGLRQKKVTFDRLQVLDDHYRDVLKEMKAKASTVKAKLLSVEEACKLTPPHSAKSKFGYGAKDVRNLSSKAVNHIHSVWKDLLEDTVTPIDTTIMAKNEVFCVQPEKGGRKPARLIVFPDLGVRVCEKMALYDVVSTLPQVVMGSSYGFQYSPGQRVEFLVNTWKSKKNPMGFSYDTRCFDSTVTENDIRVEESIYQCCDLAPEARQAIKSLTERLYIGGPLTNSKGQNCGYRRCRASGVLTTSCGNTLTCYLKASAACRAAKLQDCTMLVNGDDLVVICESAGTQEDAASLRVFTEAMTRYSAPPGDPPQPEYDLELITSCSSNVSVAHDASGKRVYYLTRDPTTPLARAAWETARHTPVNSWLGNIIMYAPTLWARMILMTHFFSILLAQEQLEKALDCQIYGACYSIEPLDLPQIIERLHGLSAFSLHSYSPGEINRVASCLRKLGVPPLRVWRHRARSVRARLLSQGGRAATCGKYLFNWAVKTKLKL
Test Readout: Ki

> print(dat)
                            smiles.notation  test.result
1  C[C@@]1(O)[C@H](O)[C@@H](COP(=O)(O)OP(=O)(O)OP(=O)(O)O)O[C@H]1c1ccc2c(N)ncnn12        80 nM

====

Assay Comment: Pharmacokinetics in monkeys
Type: in vivo, cynomolgus monkeys
Cond: cynomolgus monkey, plasma, 5 mg/kg, oral 5 mg/kgBW, read-out: Cmax (maximum concentration observed following the oral dose)
Test Readout: Cmax (nM)

> print(dat)
                            smiles.notation  test.result
1  C[C@@]1(O)[C@H](O)[C@@H](CO)O[C@H]1c1ccc2c(N)ncnn12          820

====

Assay Comment: Cross-species PK summary
Assay type: in vivo, rats, monkeys and dogs
Cond: Sprague-Dawley (rat), beagle (dog), cynomolgus (monkey), plasma; range over preclinical animal species (rat, monkey, dog); read-out: plasma / elimination half-life across species
Test Readout: half-life

> print(dat)
                            smiles.notation  test.result
1  C[C@@]1(O)[C@H](O)[C@@H](CO)O[C@H]1c1ccc2c(N)ncnn12   4 to 7.6 h

====

Assay Comment: In vitro anabolism of Compound 9, intracellular triphosphate in primary human hepatocytes
Format: in vitro ADME
Cond: human, plated primary human hepatocytes, Human Hepatocytes; read-out: Triphosphate decay half-life, Elimination phase (β, h)
Test Readout: half-life at 10 μM

> print(dat)
                            smiles.notation  test.result
1  C[C@@]1(O)[C@H](O)[C@@H](COP(=O)(O)OP(=O)(O)OP(=O)(O)O)O[C@H]1c1ccc2c(N)ncnn12       ≥ 38 h

====

Assay Comment: Pharmacokinetics in dogs
Type: in vivo, beagle dogs
Cond: beagle, plasma, 5 mg/kg; Dog; oral 5 mg/kgBW vs iv 2 mg/kgBW; read-out: F % (oral bioavailability)
Test Readout: bioavailability (%)

> print(dat)
                                   compound  test.result
1  C[C@@]1(O)[C@H](O)[C@@H](CO)O[C@H]1c1ccc2c(N)ncnn12 [Compound 9]           96

====

Assay Comment: Pharmacokinetics in rats
Format: in vivo, male Sprague-Dawley rats
Cond: Rat; oral 5 mg/kgBW; read-out: Cmax (maximum concentration observed following the oral dose)
Test Readout: Cmax (nM)

> print(dat)
                            smiles.notation  output.unit  test.result
1  C[C@@]1(O)[C@H](O)[C@@H](CO)O[C@H]1c1ccc2c(N)ncnn12           nM         2380

====

Assay Comment: Pharmacokinetics in rats
Assay type: in vivo, male Sprague-Dawley rats
Cond: male, Sprague-Dawley, plasma; Rat; single iv (2 mg/kgBW) or oral dose (5 mg/kgBW); read-out: t1/2 (terminal elimination half-life) (converted)
Test Readout: half-life

> print(dat)
                                   compound  test.result
1  C[C@@]1(O)[C@H](O)[C@@H](CO)O[C@H]1c1ccc2c(N)ncnn12 [Compound 9]          4 h

====

Assay Comment: Pharmacokinetics in monkeys
Format: in vivo, cynomolgus monkeys
Cond: cynomolgus monkey, plasma, 5 mg/kg, single iv (2 mg/kgBW) or oral dose (5 mg/kgBW), read-out: AUC (area under the curve of plasma exposure)
Test Readout: AUC (µM·h)

> print(dat)
                            smiles.notation  test.readout  test.result
1  C[C@@]1(O)[C@H](O)[C@@H](CO)O[C@H]1c1ccc2c(N)ncnn12           AUC            5
